Task for the reader: assign each of the following compounds its reported Viscosity of the mixed composition.
# protocol_summary: Viscosity of the mixed composition (Brookfield digital viscometer)
# Format: physicochemical
# assay_setup: acid replacing citric acid in activated flux of Example 1; relative scale
Just the number, please.

Qu. Fill blank: measured Viscosity of the mixed composition of the compound O=C(O)/C=C/C(=O)O [Fumaric, fumaric acid] is ____.
Ans. 1

Qu. So what's the measured Viscosity of the mixed composition for this one? CC(=O)O [Acetic, acetic acid]
Ans. 5

Qu. Item O=C(O)C(O)C(O)C(=O)O (centres unmarked) [Tartaric, tartaric acid] has what recorded Viscosity of the mixed composition?
Ans. 5

Qu. Record request: Viscosity of the mixed composition value, item O=C(O)C(=O)O [Oxalic, Oxalic acid]
Ans. 1

Qu. Form field: reported Viscosity of the mixed composition of O=C(O)/C=C\C(=O)O [Maleic, maleic acid]
Ans. 5
